# COMPOUND, melting point
rows = [
    ("CC1=C(C(=O)NN)C(c2coc3ccccc3c2=O)NC(=S)N1 (stereo not shown) [Compound 6b]", "198 to 200 °C"),
    ("CC1=C(C(=O)NN)C(c2coc3ccccc3c2=O)NC(=O)N1 (stereo not shown) [Compound 6a]", "256 to 258 °C"),
    ("CC1=C(C(=O)NN)C(c2coc3ccc(F)cc3c2=O)NC(=S)N1 (stereo not shown) [Compound 6d]", "146 to 148 °C"),
    ("CCOC(=O)C1=C(C)NC(=O)NC1c1coc2ccc(OC)cc2c1=O (stereo not shown) [Compound 4d]", "230 to 232 °C"),
    ("CCOC(=O)C1=C(C)NC(=S)NC1c1coc2ccccc2c1=O (stereo not shown) [Compound 4b]", "210 to 212 °C"),
    ("CCOC(=O)C1=C(C)NC(=O)NC1c1coc2ccccc2c1=O (stereo not shown) [Compound 4a]", "270 to 272 °C"),
    ("CCOC(=O)C1=C(C)NC(=S)NC1c1coc2ccc(F)cc2c1=O (stereo not shown) [Compound 4f]", "228 to 230 °C"),
    ("CCOC(=O)C1=C(C)NC(=O)NC1c1coc2ccc(F)cc2c1=O (stereo not shown) [Compound 4c]", "200 to 202 °C"),
    ("CCOC(=O)C1=C(C)NC(=S)NC1c1coc2ccc(OC)cc2c1=O (stereo not shown) [Compound 4e]", "222 to 224 °C"),
    ("COc1ccc2occ(C3NC(=O)NC(C)=C3C(=O)NN)c(=O)c2c1 (stereo not shown) [Compound 6e]", "208 to 210 °C"),
]
